Tested on: 616215-338-R-J1-PDC complex spheroids, viability % test/control;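 also: spheroids exposed to agents for 7 days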
Assay: Anticancer human tumor 616215-338-R-J1-PDC patient-derived colon adenocarcinoma cell line growth inhibition [CLK]
Conditions: second compound 0.316 µM; first compound 10 µM; hits give low values
Exam item: assign Condition met to entries whose viability, T/C is below 20% and Condition not met to entries at or above 20%. Note that a value of exactly 20% receives Condition not met.

Examples with answers:
COMPOUND	ASSAY SYSTEM	GROUP LABEL
COC1C=CCC(C)C(C)S(=O)(=O)NC(=O)c2ccc3c(c2)N(CC2CCC21)CC1(CCCc2cc(Cl)ccc21)CO3 (stereo not given) + CN1CCN(c2cc(C(=O)Nc3cc4cc(-c5cnn(C)c5)ccc4cn3)ccn2)CC1	616215-338-R-J1-PDC complex spheroids, viability % test/control	Condition met
COc1ccc([C@@H](O)c2cc(-c3ncnc4cc(N5CCOCC5)ccc34)c(F)cc2Cl)nn1 + CNC(=O)c1ccc(Nc2nc(OC3CCCC3)c3c(-c4ccc5nc(C)oc5c4)c[nH]c3n2)c(OC)c1	616215-338-R-J1-PDC complex spheroids, viability % test/control	Condition not met

Request: Is the reported viability, T/C for COc1cccc2c1C(=O)c1c(O)c3c(c(O)c1C2=O)CC(O)(C(=O)CO)CC3OC1CC(N)C(O)C(C)O1 (stereo not given) + CNC(=O)c1ccc(Nc2nc(OC3CCCC3)c3c(-c4ccc5nc(C)oc5c4)c[nH]c3n2)c(OC)c1 strictly below 20%?
Result: Condition met

Request: Problem: For the compound CCCS(=O)(=O)Nc1ccc(F)c(C(=O)c2c[nH]c3ncc(-c4ccc(Cl)cc4)cc23)c1F + CNC(=O)c1ccc(Nc2nc(OC3CCCC3)c3c(-c4ccc5nc(C)oc5c4)c[nH]c3n2)c(OC)c1 , is viability, T/C under 20%?
Result: Condition met

Request: Say whether its viability, T/C is strictly beneath 20%. Entry: COc1ccc([C@@H](O)c2cc(-c3ncnc4cc(N5CCOCC5)ccc34)c(F)cc2Cl)nn1 + CN1CCN(c2cc(C(=O)Nc3cc4cc(-c5cnn(C)c5)ccc4cn3)ccn2)CC1
Result: Condition met

Request: Hello, is viability, T/C of the following compound strictly smaller than 20%? C=C(F)C(=O)N1CCN(c2nc(OCC3CCCN3C)nc3c2CCN(c2cccc4cccc(Cl)c24)C3)CC1CC#N (stereo not given) + CNC(=O)c1ccc(Nc2nc(OC3CCCC3)c3c(-c4ccc5nc(C)oc5c4)c[nH]c3n2)c(OC)c1
Result: Condition met

Request: Does this compound meet the criterion viability, T/C < 20%? O=c1[nH]cc(F)c(=O)[nH]1 + CN1CCN(c2cc(C(=O)Nc3cc4cc(-c5cnn(C)c5)ccc4cn3)ccn2)CC1
Result: Condition not met

Request: # strict comparison: is reported viability, T/C < 20%? input = CC(Nc1ccc2c(c1)OCCn1cc(N3C(=O)OCC3C(F)F)nc1-2)C(N)=O (stereo not given) + CNC(=O)c1ccc(Nc2nc(OC3CCCC3)c3c(-c4ccc5nc(C)oc5c4)c[nH]c3n2)c(OC)c1
Result: Condition not met
